Where do the numbers come from? From PubChem BioAssay (NCI).

test system: HCT-116 colon; experiment: NCI tumour cell line growth inhibition, 48 h
measure-name: TGI

Here is how some compounds turned out for TGI.
- compound: "Clc1ccc(-c2cn3ccnc3c(-c3ccc(Cl)cc3)n2)cc1"
  TGI: "> 100 µM"
- compound: "Nc1ncnc2c1ncn2C1OC(CSCC(F)(F)F)C(O)C1O (configuration not stated)"
  TGI: "> 100 µM"
- compound: "CCC1(O)C(=O)OCc2c1cc1n(c2=O)Cc2cc3ccccc3nc2-1 (configuration not stated)"
  TGI: "0.614 µM"
- compound: "CCn1nc(C)c2c1C(=O)NCC(=O)N2"
  TGI: "> 100 µM"
- compound: "COc1ccc([C@H]2[C@H]3COC(=O)[C@H]3C(C#N)=C3Sc4ccccc4N32)cc1"
  TGI: "> 100 µM"
- compound: "O=C(Oc1cccnc1)c1cccnc1Nc1ccnc(C(F)(F)F)c1"
  TGI: "3.71 µM"
- compound: "[N-]=[N+]=Nc1c(Cc2ccccc2)c(Cl)nc2ccccc12"
  TGI: "53 µM"
- compound: "CN(C)c1cc2ccccc2oc1=O"
  TGI: "> 100 µM"
- compound: "Nc1nc2ccc(-c3nc4ccc5[nH]ncc5c4c4c3CCC4)cc2s1"
  TGI: "6.68 µM"
- compound: "c1ccc(-c2csc3c4ccccc4c4ccccc4[n+]23)cc1"
  TGI: "12.1 µM"

Qu. Entry "Cn1c(=O)c2[nH]c(N/N=N/c3nncs3)nc2n(C)c1=O" has what TGI?
Ans. > 100 µM

Qu. Entry C=CCC1(C#N)C(=S)NC2=C(C(=O)CC(C)(C)C2)C1c1ccccc1 (configuration not stated) has what TGI?
Ans. > 100 µM

Qu. Entry "CC1=C2C(=C[C@@](C)(CO)[C@@H]2OC(=O)N(C)CCN(C)C(=O)OC(C)(C)C)C(=O)[C@](C)(O)C12CC2" has what TGI?
Ans. > 50 µM

Qu. Entry C[C@@H](NC(C#N)c1ccco1)c1ccccc1 (some centres not stated) has what TGI?
Ans. > 100 µM

Qu. Entry O=S(=O)(/N=c1\scc(-c2ccccc2)n1-c1ccccc1)c1ccc(N2N=C3c4ccccc4CC3C2c2ccc(Cl)cc2)cc1 (configuration not stated) has what TGI?
Ans. > 100 µM

Qu. Entry "Oc1cccc(Nc2nc3ccccc3c3occc23)c1" has what TGI?
Ans. 31.1 µM

Qu. Entry "COc1cc(/C=C/C(=O)c2c(C)nc3ccccc3c2/C=C/c2ccccc2)cc(OC)c1OC" has what TGI?
Ans. 1.91 µM

---

test system: SNB-19 CNS; experiment: NCI tumour cell line growth inhibition, 48 h
measure-name: TGI

- molecule: "CN(C)CCNc1ccc2c(=O)n(CCN(C)C)c(=O)n3c4ccc(O)cc4c(=O)c1c23"
  TGI: "0.729 µM"

We next turn to a different molecule, shown below.
Qu. Given the entry "O=C(O)CCNS(=O)(=O)c1ccc(NC(=O)c2ccccc2)cc1" , what TGI was observed with SNB-19 CNS?
Ans. > 100 µM

---

test system: NCI/ADR-RES ovarian; experiment: NCI tumour cell line growth inhibition, 48 h; in the data active = GI50 below about 0.43 µM; inactive = the rest
Answer with one of the outcomes given here: 1 = active, 0 = inactive

- compound: "COc1ccc(C2=Nn3c(nnc3-c3cc(Cl)cc(Cl)c3Cl)SC2)cc1"
  assigned-label: 1
- compound: "O=C1/C(=C/c2ccc([N+](=O)[O-])cc2)CN(C(=O)CCN2CCC(=NO)CC2)C/C1=C\\c1ccc([N+](=O)[O-])cc1"
  assigned-label: 0
- compound: "COc1ccc(-c2noc(C(=O)O)c2-c2cc(OC)c(OC)c(OC)c2)cc1"
  assigned-label: 0
- compound: "c1ccc(C2ONC3=NCCN32)cc1 (stereo not given)"
  assigned-label: 0

Qu. State the result this test recorded for O=S(=O)(/N=c1\scc(-c2ccccc2)n1-c1ccccc1)c1ccc(N2N=C3c4ccccc4CC3C2c2ccc(Cl)cc2)cc1 (stereo not given) .
Ans. 0
